Test: Measurement of absorbance and fluorescence of synthesized compound in ethanol
Format: physicochemical
Conditions: 10 μM in ethanol; difference between excitation and emission
For each of the molecules below, state its Stokes shift.
Provide only the numeric value, understood in nm.

Field request: Stokes shift | item: COc1ccc2nc(/C=C/C=C/c3ccc(N(C)C)cc3)ccc2c1 [Compound 15c] 201

For the molecule shown here, COc1ccc2nc(/C=C/c3ccncc3)ccc2c1 [Compound 14b] , give the reported Stokes shift. 63

Can you look up the measured Stokes shift of COc1ccc2nc(/C=C/C(=O)c3ccc(N(C)C)cc3)ccc2c1 [Compound 13a] for me? 202

Given the molecule COc1ccc2nc(C(=O)/C=C/C=C/c3ccc(N(C)C)cc3)ccc2c1 [Compound 16c] , what is its reported Stokes shift? 228

// Stokes shift lookup, key: COc1ccc2nc(/C=C/C=C/c3ccc(N(C)C)nc3)ccc2c1 [Compound 15d] 118

What value of measured Stokes shift is listed for Nc1ccc(C(=O)/C=C/c2ccc3cc(O)ccc3n2)cc1 [Compound 13c] ? 192

Stokes shift for COc1ccc2nc(/C=C/C=C/c3cccc([N+](=O)[O-])c3)ccc2c1 [Compound 15g] ? 91

Find the recorded Stokes shift belonging to COc1ccc2nc(C(=O)/C=C/C=C/c3ccc(N(C)C)nc3)ccc2c1 [Compound 16d] and report it. 212

Please give the measured Stokes shift for this molecule: CNc1ccc(/C=C/C=C/C(=O)c2ccc3cc(OC)ccc3n2)cc1 [Compound 16b] 239

---

Molecular target: tau aggregates (Tau-K18 protein) (Homo sapiens)
Construct: aggregation of Tau-K18 protein (0.5 mg/ml in PBS) purified and isolated from E. coli; made in house; host or cells: E. coli
Sequence (P10636 561-685 limits assumed): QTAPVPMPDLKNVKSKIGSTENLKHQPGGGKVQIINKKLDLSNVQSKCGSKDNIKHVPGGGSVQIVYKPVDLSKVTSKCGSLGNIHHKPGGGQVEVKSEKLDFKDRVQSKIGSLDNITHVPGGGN
Test: In vitro binding assay (fluorescence labeling ability) to tau aggregates
Conditions: compound 10 μM
Give measured SItaumono: selectivity index, tau aggregate versus tau monomer for each item. Keep answers brief.
Answer with a bare number; do not write a unit.

Field request: SItaumono: selectivity index, tau aggregate versus tau monomer | item: Nc1ccc(C(=O)/C=C/c2ccc3cc(O)ccc3n2)cc1 [Compound 13c] 3.2

Item under review: COc1ccc2nc(/C=C/C(=O)c3ccc(N(C)C)cc3)ccc2c1 [Compound 13a] . Reported SItaumono: selectivity index, tau aggregate versus tau monomer? 5.2

Consider the compound shown here: COc1ccc2nc(C(=O)/C=C/C=C/c3ccc(N(C)C)cc3)ccc2c1 [Compound 16c] What is its recorded SItaumono: selectivity index, tau aggregate versus tau monomer? 1.7

Consider the compound COc1ccc2nc(C(=O)/C=C/C=C/c3ccc(N(C)CCO)cc3)ccc2c1 [Compound 16e] and give its measured SItaumono: selectivity index, tau aggregate versus tau monomer. 3.0

What value of SItaumono: selectivity index, tau aggregate versus tau monomer has been reported for the following compound? COc1ccc2nc(/C=C/C=C/c3ccc(N(C)C)nc3)ccc2c1 [Compound 15d] 1.3

---

Biological target: amyloid beta aggregates (Abeta40) (Homo sapiens, UniProt P05067)
Construct: the synthesized Abeta40 (Amyloid Beta 40) peptide was dissolved in PBS; host or cells: synthetic peptide
Sequence (P05067 672-711 limits assumed): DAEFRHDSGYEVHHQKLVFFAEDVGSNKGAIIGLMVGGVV
Assay: In vitro binding assay (fluorescence labeling ability) to amyloid beta aggregates
Settings: compound 10 μM, PBS, 30 min incubation
Procedure: Experimental Example 2-1: Tau and amyloid beta aggregation induction For amyloid aggregation induction, the synthesized Abeta40 (Amyloid Beta 40) peptide was dissolved in PBS at a concentration of 0.5 mg/ml to induce aggregation for 7 days at 37° C. and 200 rpm with shaking. […]
EXPERIMENTAL_ENDPOINT: FIAβ: fold increase = fluorescence intensity of probe bound to Aβ aggregate / probe (free)
Could you respond with only the numeric value?

Report FIAβ: fold increase = fluorescence intensity of probe bound to Aβ aggregate / probe (free) for COc1ccc2nc(/C=C/C=C/c3cccc([N+](=O)[O-])c3)ccc2c1 [Compound 15g] tested on amyloid beta aggregates (Abeta40) (Homo sapiens, UniProt P05067). 0.58

Under amyloid beta aggregates (Abeta40) (Homo sapiens, UniProt P05067): FIAβ: fold increase = fluorescence intensity of probe bound to Aβ aggregate / probe (free) value of CNc1ccc(/C=C/C=C/c2ccc3cc(OC)ccc3n2)cc1 [Compound 15b] ? 0.32

Enter reported FIAβ: fold increase = fluorescence intensity of probe bound to Aβ aggregate / probe (free) observed with amyloid beta aggregates (Abeta40) (Homo sapiens, UniProt P05067) for COc1ccc2nc(/C=C/C=C/c3ccc([N+](=O)[O-])nc3)ccc2c1 [Compound 15e] 0.44

Lab note: need FIAβ: fold increase = fluorescence intensity of probe bound to Aβ aggregate / probe (free) for COc1ccc2nc(/C=C/c3ccc(C(F)(F)F)cc3)ccc2c1 [Compound 14a] on amyloid beta aggregates (Abeta40) (Homo sapiens, UniProt P05067), anyone have it? 0.54

Give amyloid beta aggregates (Abeta40) (Homo sapiens, UniProt P05067) FIAβ: fold increase = fluorescence intensity of probe bound to Aβ aggregate / probe (free) for COc1ccc2nc(/C=C/C(=O)c3ccc(N(C)C)cc3)ccc2c1 [Compound 13a] 1.10

amyloid beta aggregates (Abeta40) (Homo sapiens, UniProt P05067) / FIAβ: fold increase = fluorescence intensity of probe bound to Aβ aggregate / probe (free) / COc1ccc2nc(/C=C/C=C/c3ccc(F)cc3F)ccc2c1 [Compound 15h] : value? 1.56

Missing value: FIAβ: fold increase = fluorescence intensity of probe bound to Aβ aggregate / probe (free), amyloid beta aggregates (Abeta40) (Homo sapiens, UniProt P05067), entry COc1ccc2nc(/C=C/C(=O)c3ccc(C)cc3)ccc2c1 [Compound 13d] . Fill in? 1.88

Record COc1ccc2nc(/C=C/c3ccncc3)ccc2c1 [Compound 14b] : what is its FIAβ: fold increase = fluorescence intensity of probe bound to Aβ aggregate / probe (free) with amyloid beta aggregates (Abeta40) (Homo sapiens, UniProt P05067)? 0.57

Write down the reported FIAβ: fold increase = fluorescence intensity of probe bound to Aβ aggregate / probe (free) of COc1ccc2nc(/C=C/C=C/c3cccc(Cl)c3)ccc2c1 [Compound 15f] , test system: amyloid beta aggregates (Abeta40) (Homo sapiens, UniProt P05067). 3.27

So what FIAβ: fold increase = fluorescence intensity of probe bound to Aβ aggregate / probe (free) did COc1ccc2nc(/C=C/C=C/c3ccc(N(C)C)nc3)ccc2c1 [Compound 15d] get with amyloid beta aggregates (Abeta40) (Homo sapiens, UniProt P05067)? 1.25

Report FIAβ: fold increase = fluorescence intensity of probe bound to Aβ aggregate / probe (free) for COc1ccc2nc(C(=O)/C=C/C=C/c3ccc(N(C)C)cc3)ccc2c1 [Compound 16c] tested on amyloid beta aggregates (Abeta40) (Homo sapiens, UniProt P05067). 1.43

Enter reported FIAβ: fold increase = fluorescence intensity of probe bound to Aβ aggregate / probe (free) observed with amyloid beta aggregates (Abeta40) (Homo sapiens, UniProt P05067) for CNc1ccc(/C=C/C=C/C(=O)c2ccc3cc(OC)ccc3n2)cc1 [Compound 16b] 9.45

Test system amyloid beta aggregates (Abeta40) (Homo sapiens, UniProt P05067); read-out FIAβ: fold increase = fluorescence intensity of probe bound to Aβ aggregate / probe (free); what value for COc1ccc2nc(C(=O)/C=C/C=C/c3ccc(N(C)C)nc3)ccc2c1 [Compound 16d] ? 1.10

Notebook entry, amyloid beta aggregates (Abeta40) (Homo sapiens, UniProt P05067) assay: FIAβ: fold increase = fluorescence intensity of probe bound to Aβ aggregate / probe (free) of COc1ccc2nc(/C=C/C(=O)c3ccc(Br)cc3)ccc2c1 [Compound 13e] = ? 1.37

Lab request: please report FIAβ: fold increase = fluorescence intensity of probe bound to Aβ aggregate / probe (free) under test system amyloid beta aggregates (Abeta40) (Homo sapiens, UniProt P05067) for COc1ccc2nc(C(=O)/C=C/C=C/c3ccc(N(C)CCO)cc3)ccc2c1 [Compound 16e] 1.55

What is its FIAβ: fold increase = fluorescence intensity of probe bound to Aβ aggregate / probe (free) for amyloid beta aggregates (Abeta40) (Homo sapiens, UniProt P05067)? Entry: Nc1ccc(C(=O)/C=C/c2ccc3cc(O)ccc3n2)cc1 [Compound 13c] 1.67

Any idea what FIAβ: fold increase = fluorescence intensity of probe bound to Aβ aggregate / probe (free) came out for COc1ccc2nc(/C=C/C=C/c3ccc(N(C)C)cc3)ccc2c1 [Compound 15c] on amyloid beta aggregates (Abeta40) (Homo sapiens, UniProt P05067)? 0.18

---

Give measured λex: Maximum excitation wavelength for each item. Keep answers brief.
Experiment: Measurement of absorbance and fluorescence of synthesized compound in ethanol
Type: physicochemical
Conditions: 10 μM in ethanol, average of three measurements
I only need the number, in nm, no unit after it.

I have this compound here, COc1ccc2nc(/C=C/C=C/c3cccc([N+](=O)[O-])c3)ccc2c1 [Compound 15g] , and I need its recorded λex: Maximum excitation wavelength. 361

Give the measured λex: Maximum excitation wavelength of COc1ccc2nc(/C=C/C(=O)c3ccc(Br)cc3)ccc2c1 [Compound 13e] . 314

Query: λex: Maximum excitation wavelength; subject: CNc1ccc(/C=C/C=C/c2ccc3cc(OC)ccc3n2)cc1 [Compound 15b] 400

Name the recorded λex: Maximum excitation wavelength for COc1ccc2nc(/C=C/C=C/c3ccc(N(C)C)cc3)ccc2c1 [Compound 15c] . 399

Please give the measured λex: Maximum excitation wavelength for this compound: COc1ccc2nc(/C=C/C(=O)c3ccc(N(C)C)cc3)ccc2c1 [Compound 13a] 339
